Taken from PubChem BioAssay (NCATS).

# System: HIV-1 nucleocapsid protein NCp7 (binding to TG oligonucleotide)
# measurement_description: HIV Nucleocapsid (AID 346);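 note: potency is the fitted concentration of half-maximal effect; potency is for inhibitors that block NC binding and lower polarization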
# condition_parameters: HIV-1 NC / fluorescein-TGTGTGTG probe, fluorescence polarization
Activity calls are given as the source filed them. The rule behind the calls is not given here.
# Potency per record follows
measurement_type: Potency

- COc1cccc(-c2cncnc2NCc2cnc(C)cn2)c1: > 20 µM (inactive)
- COc1ccc(C(=O)N2CCC[C@@]3(CCN(Cc4ccc(C#N)cc4)C3)C2)cc1: > 20 µM (inactive)
- CN(Cc1ccco1)c1cc(-c2cccnc2)ncn1: > 20 µM (inactive)
- CS(=O)(=O)Nc1cccc(-c2cncnc2Nc2ccc(F)cc2)c1: > 20 µM (inactive)
- COCC(=O)N1CCC2(CCCN(Cc3nccs3)C2)CC1: > 20 µM (inactive)
- O=C(c1cccc(F)c1)N1CCC2(CCCN(Cc3cc(C(F)(F)F)cc(C(F)(F)F)c3)C2)CC1: > 20 µM (inactive)
- COCC(=O)N1CCC[C@@]2(CCN(Cc3ccccc3)C2)C1: > 20 µM (inactive)
- COc1ccccc1CN1CCCC2(CCN(C(=O)Oc3ccccc3)CC2)C1: > 20 µM (inactive)
- COc1ccc(CNc2ncncc2-c2ccccc2C(F)(F)F)c(OC)c1: > 20 µM (inactive)
- N#CCCn1c(=O)cnc2cnc(N3CCNCC3)nc21: > 20 µM (inactive)
- COc1ncc2nc(-c3ccccc3)c(=O)n(CCC#N)c2n1: > 20 µM (inactive)
- COC(=O)N1CCC[C@@]2(CCN(Cc3cc(C(F)(F)F)cc(C(F)(F)F)c3)C2)C1: > 20 µM (inactive)
- Cc1ccccc1-c1nc(-n2ccnc2)c2ccccc2n1: > 20 µM (inactive)
- COc1cccc(Nc2ncc3nc(C)c(=O)n(Cc4cccs4)c3n2)c1: > 4 µM (inactive)
- O=c1c(-c2ccccc2)nc2cnc(N3CCNCC3)nc2n1Cc1ccc(F)cc1: > 20 µM (inactive)
- CC(=O)N1CCC2(CCCN(Cc3ccccc3)C2)CC1: > 20 µM (inactive)
- O=S(=O)(c1ccccc1)N1CCC2(CC1)CN(Cc1nccs1)C2: > 20 µM (inactive)
- COC(=O)N1CCC[C@@]2(CCN(c3ccccn3)C2)C1: > 20 µM (inactive)
- COc1ccccc1-c1nc(N2CCN(C)CC2)c2ccccc2n1: > 20 µM (inactive)
- COc1ccc(-n2c(=O)c(-c3ccc(Cl)cc3)nc3cncnc32)cc1: > 4 µM (inactive)
- Cn1cc(-c2nc3cnc(Oc4ccccc4)nc3n(Cc3cccs3)c2=O)c2ccccc21: > 20 µM (inactive)
- c1cncc(-c2nc(N3CCNCC3)c3ccccc3n2)c1: > 20 µM (inactive)
- COc1cccc(-c2cncnc2NCCc2cnc[nH]2)c1: > 20 µM (inactive)

---

# measurement_description: Cell Viability - LYMP2-018 (AID 985);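 note: compound exposure lasted 24 hr at 37 °C; nearly all actives have a fitted effect of over 50% in size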
# condition_parameters: LYMP2-018 lymphoblastoid cells, viability (qHTS); series mostly up to 92.2 µM
Results filed as inconclusive are left out. Activity calls are given as the source filed them. Calls follow the shape of the dose curve; as a rule, active = well fitted cell-killing curve with a large enough effect; inconclusive = small, poorly fitted or top-dose-only effect; inactive = flat fitted curve, though single readings scatter.
Possible outcomes: Y for active, N for inactive

- N#C/C=C/C#N: Y
- CCN(N=O)C(N)=O: N
- COc1ccccc1N: N
- Clc1ccc(C(Cl)(Cl)Cl)cc1Cl: N
- CCCCOC(C)=O: N

---

# measurement_description: Cell Viability - LYMP2-004 (AID 966);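 note: cells exposed to compound for 24 h; nearly all actives have a fitted effect of over 65% in size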
# condition_parameters: LYMP2-004 lymphoblastoid cell viability, qHTS; series mostly up to 92.2 µM
Results filed as inconclusive are left out. The source made the active and inactive calls. The call rests on the fitted dose curve; in most records, active means well fitted cell-killing curve with a large enough effect; inconclusive means small, poorly fitted or top-dose-only effect, or effect the other way; inactive means no such curve, though single readings can be large or run the other way.
Outcome codes: Yes = active, No = inactive

* Nc1cccc(Cl)c1 | No
* CCNCC | No
* CCOC(=O)C1OC1(C)c1ccccc1 (configuration not stated) | No
* ClC(Cl)C(Cl)Cl | No
* Clc1cc(Cl)c(Cl)c(Cl)c1 | No
* COc1ccc(C=O)cc1 | No
* Nc1cc(Cl)cc(Cl)c1 | No
* Clc1cccc2ccccc12 | No
* O=C(Cl)OCc1ccccc1 | No
* NC1CCC(CC2CCC(N)CC2)CC1 (configuration not stated) | No
* CCOP(=O)(OCC)OCC | No
* CCC/C=N/O | No
* C/C=C/CC#N | No
* O=C(Cc1ccccc1)OCc1ccccc1 | No
* CC(=O)CCC(C)=O | No
* Oc1cc(Cl)c(Cl)c(Cl)c1Cl | No
* CN1CSC(=S)N(C)C1 | Yes
